Values were extracted from paper PMC8844822.

- Tested system: hSARM1 full length (Homo sapiens, UniProt Q6SZW1)
- Construct: Human recombinant SARM1 full length proteins (wild-type and E642A mutant); made in house
- Protocol text: Base exchange reactions at neutral pH (HPLC)
- Format: biochemical
- Assay conditions: hSARM1 full length +VMN 0.05 mM; NADP […] alone or + free base
Property measured: rate
Please answer in the form of a number followed by its unit of measurement.

Exercise: State its rate: O=C(NCc1ccc[n+]([C@@H]2O[C@H](COP(=O)(O)O)[C@@H](O)[C@H]2O)c1)Nc1ccc([N+](=O)[O-])cc1 [VMN, vacor mononucleotide]
Solution: 138.3 ±1.72 mU/mg

Exercise: For the compound `O=C(NCc1cccnc1)Nc1ccc([N+](=O)[O-])cc1` , report rate.
Solution: 148.5 ±4.61 mU/mg

Exercise: Identify measured rate associated with `CC(=O)c1cccnc1`
Solution: 140.7 ±13.3 mU/mg

Exercise: Quick one: give measured rate for `O=C(O)c1cccnc1`
Solution: 147.6 ±4.76 mU/mg

###

- Tested system: hSARM1 SAM-TIR (Homo sapiens)
- Protocol text: NADase inhibition by pyridine ribosides, IC50 and inhibition kinetics (HPLC)
- Assay conditions: NAD […], preliminary
Property measured: IC50 (µM)
// return numeric value only (unit: µM, not printed)

Exercise: Find the measured IC50 of O=C(NCc1ccc[n+]([C@@H]2O[C@H](CO)[C@@H](O)[C@H]2O)c1)Nc1ccc([N+](=O)[O-])cc1 [VR, vacor riboside] and report it.
Solution: 61

Exercise: For the compound O=C([O-])c1ccc[n+]([C@@H]2O[C@H](CO)[C@@H](O)[C@H]2O)c1 [NaR, nicotinic acid riboside] , report IC50.
Solution: 36

###

- Tested system: Aplysia californica ADP ribosyl cyclase (Aplysia californica)
- Sequence (P29241 25-282): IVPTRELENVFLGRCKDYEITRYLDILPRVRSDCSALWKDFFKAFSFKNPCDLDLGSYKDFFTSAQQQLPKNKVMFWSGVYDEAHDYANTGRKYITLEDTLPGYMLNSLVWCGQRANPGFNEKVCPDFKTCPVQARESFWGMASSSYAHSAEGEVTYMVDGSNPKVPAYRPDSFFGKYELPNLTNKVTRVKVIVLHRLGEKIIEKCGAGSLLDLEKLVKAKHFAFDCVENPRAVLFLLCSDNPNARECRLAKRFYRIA
- Assay conditions: dinucleotide 250 μM, 25°C, 2–6 h
- Experimental: hSARM1 species were routinely assayed by the NAD/NADH-Glo^TM Assay (Promega) while both Aplysia cyclase and CD38 were assayed by fluorometry using ϵNAD ([Orsomando et al., 2000]). […] Reactions were stopped by HClO4/K2CO3 and analysed by C18-HPLC as reported ([Mori et al., 2014]). […] Rates were calculated as follows. […]
Property measured: use as substrate (consumption rate)

compound="NC(=O)C1=CN([C@@H]2O[C@H](COP(=O)(O)OP(=O)(O)OC[C@H]3O[C@@H](n4cnc5c(N)ncnc54)[C@H](OP(=O)(O)O)[C@@H]3O)[C@@H](O)[C@H]2O)C=CC1 [NADPH]" result="negligible usage"
compound="NC(=O)C1=CN([C@@H]2O[C@H](COP(=O)(O)OP(=O)(O)OC[C@H]3O[C@@H](n4cnc5c(N)ncnc54)[C@H](O)[C@@H]3O)[C@@H](O)[C@H]2O)C=CC1 [NADH]" result="negligible usage"
compound="NC(=O)c1ccc[n+]([C@H]2O[C@H](COP(=O)([O-])OP(=O)(O)OC[C@H]3O[C@@H](n4cnc5c(N)ncnc54)[C@H](O)[C@@H]3O)[C@@H](O)[C@H]2O)c1 [αNAD, alpha-NAD]" result="no activity"
compound="Nc1ncnc2c1ncn2[C@@H]1O[C@H](COP(=O)(O)OP(=O)([O-])OC[C@H]2O[C@@H]([n+]3cccc(CNC(=O)Nc4ccc([N+](=O)[O-])cc4)c3)[C@H](O)[C@@H]2O)[C@@H](O)[C@H]1O [VAD, vacor adenine dinucleotide]" result="no activity"

Kindly consider the entry below.
Exercise: Give use as substrate (consumption rate) for Nc1ncnc2c1ncn2[C@@H]1O[C@H](COP(=O)(O)OP(=O)(O)OC[C@H]2O[C@@H]([n+]3cccc(C(=O)O)c3)[C@H](O)[C@@H]2O)[C@@H](O)[C@H]1O [NaAD, nicotinic acid adenine dinucleotide]
Solution: negligible usage

###

- Tested system: Aplysia californica ADP ribosyl cyclase (Aplysia californica)
- Protocol text: Base exchange reactions at neutral pH (HPLC)
- Format: biochemical
- Set-up: purchased Merck A8950
- Assay conditions: NAD […] alone or + AcPyr 2 mM / Vacor 0.5 mM / Na 2 mM
Task for the reader: assign each of the following compounds its reported rate.
# number only, unit mU/mg dropped from output

Exercise: Determine from records and report rate for `CC(=O)c1cccnc1`
Solution: 13996

Exercise: State its rate for this compound: `O=C(NCc1cccnc1)Nc1ccc([N+](=O)[O-])cc1`
Solution: 12748

Exercise: Specify measured rate for NC(=O)c1ccc[n+]([C@@H]2O[C@H](COP(=O)([O-])OP(=O)(O)OC[C@H]3O[C@@H](n4cnc5c(N)ncnc54)[C@H](O)[C@@H]3O)[C@@H](O)[C@H]2O)c1 [NAD, nicotinamide adenine dinucleotide] .
Solution: 14712

Exercise: Determine its reported rate: `O=C(O)c1cccnc1`
Solution: 14595

###

- Tested system: hSARM1 full length (Homo sapiens, UniProt Q6SZW1)
- Construct: Human recombinant SARM1 full length proteins (wild-type and E642A mutant); made in house
- Protocol text: Base exchange reactions at neutral pH (HPLC)
- Type: biochemical
- Assay conditions: hSARM1 full length +VMN 0.05 mM; NAD […]
Property measured: cyclization, share of products (%)
Numeric answer only, unit % assumed.

Exercise: Give recorded cyclization, share of products. CC(=O)c1cccnc1 [AcPyr, 3-acetylpyridine]
Solution: 0.68

Exercise: Look up cyclization, share of products of O=C(NCc1cccnc1)Nc1ccc([N+](=O)[O-])cc1 [Vacor] and report it.
Solution: 4.75

Exercise: Please indicate cyclization, share of products recorded for O=C(NCc1ccc[n+]([C@@H]2O[C@H](COP(=O)(O)O)[C@@H](O)[C@H]2O)c1)Nc1ccc([N+](=O)[O-])cc1 [VMN, vacor mononucleotide]
Solution: 8.79

Exercise: Please look at this molecule and report its cyclization, share of products: O=C(O)c1cccnc1 [Na, nicotinic acid]
Solution: 6.44

###

- Tested system: hSARM1 full length (Homo sapiens)
- Construct: Human recombinant SARM1 full length proteins (wild-type and E642A mutant); made in house
- Sequence (Q6SZW1 28-724): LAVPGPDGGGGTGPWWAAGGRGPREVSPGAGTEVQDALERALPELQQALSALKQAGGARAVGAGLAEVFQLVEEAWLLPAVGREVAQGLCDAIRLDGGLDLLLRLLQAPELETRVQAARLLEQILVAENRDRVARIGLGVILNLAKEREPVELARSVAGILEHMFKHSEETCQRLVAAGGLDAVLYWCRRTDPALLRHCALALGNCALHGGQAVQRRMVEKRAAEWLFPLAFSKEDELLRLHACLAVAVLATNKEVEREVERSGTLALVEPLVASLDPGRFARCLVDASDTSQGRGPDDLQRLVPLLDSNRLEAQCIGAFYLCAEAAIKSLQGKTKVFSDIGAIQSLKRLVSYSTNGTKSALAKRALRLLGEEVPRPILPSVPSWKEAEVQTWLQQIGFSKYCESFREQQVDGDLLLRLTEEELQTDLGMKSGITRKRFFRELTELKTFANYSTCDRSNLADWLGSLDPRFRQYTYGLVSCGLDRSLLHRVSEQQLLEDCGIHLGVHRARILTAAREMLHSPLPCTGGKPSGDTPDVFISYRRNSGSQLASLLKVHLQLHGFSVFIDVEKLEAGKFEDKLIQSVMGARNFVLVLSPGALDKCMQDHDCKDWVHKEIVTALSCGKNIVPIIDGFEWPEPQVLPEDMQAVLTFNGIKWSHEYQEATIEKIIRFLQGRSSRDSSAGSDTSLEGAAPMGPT
- Protocol text: Base exchange reactions at neutral pH (HPLC)
- Format: biochemical
- Assay conditions: hSARM1 full length +NMN 0.2 mM; NAD […] alone or + free base
Property measured: rate (mU/mg)
// units = mU/mg; emit number, no label

Exercise: Identify the reported rate for the following entry. NC(=O)c1ccc[n+]([C@@H]2O[C@H](COP(=O)([O-])O)[C@@H](O)[C@H]2O)c1 [NMN, nicotinamide mononucleotide]
Solution: 187.9

Exercise: Determine from records and report rate for `O=C(O)c1cccnc1`
Solution: 201.5

Exercise: Quickly give me recorded rate for `CC(=O)c1cccnc1`
Solution: 218.5

Exercise: Complete the entry with rate for `O=C(NCc1cccnc1)Nc1ccc([N+](=O)[O-])cc1`
Solution: 180.1

###

- Tested system: hSARM1 full length (Homo sapiens, UniProt Q6SZW1)
- Construct: Human recombinant SARM1 full length proteins (wild-type and E642A mutant); made in house
- Protocol text: NAD(P)ase activity by HPLC (kinetics, substrates, metal ions)
- Assay type: biochemical
- Assay conditions: hSARM1; dinucleotide 250 μM, 25°C, 2–6 h
Property measured: use as substrate (consumption rate)

In the examples that follow, each entry is paired with its recorded use as substrate (consumption rate).
compound="Nc1ncnc2c1ncn2[C@@H]1O[C@H](COP(=O)(O)OP(=O)(O)OC[C@H]2O[C@@H]([n+]3cccc(C(=O)O)c3)[C@H](O)[C@@H]2O)[C@@H](O)[C@H]1O [NaAD, nicotinic acid adenine dinucleotide]" result="negligible usage"
compound=NC(=O)C1=CN([C@@H]2O[C@H](COP(=O)(O)OP(=O)(O)OC[C@H]3O[C@@H](n4cnc5c(N)ncnc54)[C@H](OP(=O)(O)O)[C@@H]3O)[C@@H](O)[C@H]2O)C=CC1 result="negligible usage"
compound="Nc1ncnc2c1ncn2[C@@H]1O[C@H](COP(=O)(O)OP(=O)([O-])OC[C@H]2O[C@@H]([n+]3cccc(CNC(=O)Nc4ccc([N+](=O)[O-])cc4)c3)[C@H](O)[C@@H]2O)[C@@H](O)[C@H]1O [VAD, vacor adenine dinucleotide]" result="no activity"
compound=NC(=O)C1=CN([C@@H]2O[C@H](COP(=O)(O)OP(=O)(O)OC[C@H]3O[C@@H](n4cnc5c(N)ncnc54)[C@H](O)[C@@H]3O)[C@@H](O)[C@H]2O)C=CC1 result="negligible usage"

# context switch: different compound, same use as substrate (consumption rate)
Exercise: Determine from records and report use as substrate (consumption rate) for `NC(=O)c1ccc[n+]([C@H]2O[C@H](COP(=O)([O-])OP(=O)(O)OC[C@H]3O[C@@H](n4cnc5c(N)ncnc54)[C@H](O)[C@@H]3O)[C@@H](O)[C@H]2O)c1`
Solution: no activity
